MIC listing for selected compounds.
- Test system: Enterococcus
- measurement protocol: Antibacterial activity against Enterococcus 60 assessed as bacterial growth inhibition in presence of 50 ug/ml calcium ions by CLSI protocol based broth microdilution method
- Format: functional

Known results for compounds:
>>> result("CCCCCCCCCC(=O)N[C@@H](Cc1c[nH]c2ccccc12)C(=O)N[C@@H](CC(N)=O)C(=O)N[C@@H](CC(=O)O)C(=O)N[C@@H]1C(=O)NCC(=O)N[C@@H](CCC(N)=O)C(=O)N[C@@H](CC(=O)O)C(=O)N[C@H](C)C(=O)N[C@@H](CC(=O)O)C(=O)NCC(=O)N[C@H](CO)C(=O)N[C@@H]([C@@H](C)CC(=O)O)C(=O)N[C@@H](CC(=O)c2ccccc2N)C(=O)O[C@@H]1C")
"≥ 32 µg/mL"
>>> result("CCCCCCCCCC(=O)N[C@@H](Cc1c[nH]c2ccccc12)C(=O)N[C@@H](CC(N)=O)C(=O)N[C@@H](CC(=O)O)C(=O)N[C@@H]1C(=O)NCC(=O)N[C@@H](CCCN)C(=O)N[C@@H](CC(=O)O)C(=O)N[C@H](C)C(=O)N[C@@H](C)C(=O)NCC(=O)N[C@H](CO)C(=O)N[C@@H]([C@@H](C)CC(=O)O)C(=O)N[C@@H](CC(=O)c2ccccc2N)C(=O)O[C@@H]1C")
"≥ 64 µg/mL"
>>> result("CCCCCCCCCC(=O)N[C@@H](Cc1c[nH]c2ccccc12)C(=O)N[C@@H](CC(N)=O)C(=O)N[C@@H](CC(=O)O)C(=O)N[C@@H]1C(=O)NCC(=O)N[C@@H](C(C)C)C(=O)N[C@@H](CC(=O)O)C(=O)N[C@H](C)C(=O)N[C@@H](CC(=O)O)C(=O)NCC(=O)N[C@H](CO)C(=O)N[C@@H]([C@@H](C)CC(=O)O)C(=O)N[C@@H](CC(=O)c2ccccc2N)C(=O)O[C@@H]1C")
"≥ 32 µg/mL"

Query: Provide MIC, system Enterococcus, entry `CCCCCCCCCC(=O)N[C@@H](Cc1c[nH]c2ccccc12)C(=O)N[C@@H](C)C(=O)N[C@@H](CC(=O)O)C(=O)N[C@@H]1C(=O)NCC(=O)N[C@@H](CCCN)C(=O)N[C@@H](CC(=O)O)C(=O)N[C@H](C)C(=O)N[C@@H](CC(=O)O)C(=O)NCC(=O)N[C@H](CO)C(=O)N[C@@H]([C@@H](C)CC(=O)O)C(=O)N[C@@H](CC(=O)c2ccccc2N)C(=O)O[C@@H]1C`
Response: 32 µg/mL

Query: Provide measured MIC on Enterococcus for `C[C@H]1NC(=O)[C@H](CC(=O)O)NC(=O)[C@H](CCCN)NC(=O)CNC(=O)[C@@H](NC(=O)[C@H](CC(=O)O)NC(=O)[C@H](CC(N)=O)NC(=O)[C@H](Cc2c[nH]c3ccccc23)NC(=O)c2ccc(C#Cc3ccc(-c4ccccc4)cc3)cc2)[C@@H](C)OC(=O)[C@H](CC(=O)c2ccccc2N)NC(=O)[C@H]([C@@H](C)CC(=O)O)NC(=O)[C@@H](CO)NC(=O)CNC(=O)[C@H](CC(=O)O)NC1=O` please.
Response: 2 µg/mL

Query: Report the value of MIC obtained on Enterococcus for `CCCCCCCCCC(=O)N[C@@H](Cc1c[nH]c2ccccc12)C(=O)N[C@@H](CC(N)=O)C(=O)N[C@@H](CC(=O)O)C(=O)N[C@@H]1C(=O)NCC(=O)NCC(=O)N[C@@H](CC(=O)O)C(=O)N[C@H](C)C(=O)N[C@@H](CC(=O)O)C(=O)NCC(=O)N[C@H](CO)C(=O)N[C@@H]([C@@H](C)CC(=O)O)C(=O)N[C@@H](CC(=O)c2ccccc2N)C(=O)O[C@@H]1C` .
Response: ≥ 32 µg/mL
